# TEST DETAILS: supercomplex reporter luminescence per Hoechst cell count – Hoechst nuclei count (AID 1645838);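 note: control cybrid cells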;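 for z-score: higher means more mitochondrial supercomplex formation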
# CONDITIONS USED: Cells, luminescence/Hoechst cell count ratio, library stock concentration (final well concentration not given) 400 uM, stronger effect = higher value
Screen size: about 2,000 compounds; about 100 (5%) were called active. The sample as a whole holds a higher share of actives than the screen did.
Classification field: met = z-score at or over 0.01; not met = z-score under 0.01.

MOLECULE	CLASS NAME
Oc1ccc(C=NN(Cc2ccccc2)Cc2ccccc2)cc1	met
CCOc1ccc(-n2c(C(C)N(Cc3cccnc3)C(=O)Cc3ccc(OC(F)(F)F)cc3)nc3ncccc3c2=O)cc1 (stereo not drawn)	met
OCc1cc(C(O)CNCCCCCCOCCCCc2ccccc2)ccc1O (stereo not drawn)	met

Data request: Textbook exercise: given the entry CCCNC1CCc2nc(N)sc2C1 (stereo not drawn) , state whether its z-score is greater than or equal to 0.01.
Data returned: not met

Data request: Hi, just wondering whether Cc1ccc(NC(=O)c2cccc(C(C)(C)C#N)c2)cc1Nc1ccc2ncn(C)c(=O)c2c1 shows z-score of 0.01 or higher.
Data returned: met

Data request: // inclusive: z-score at least 0.01? input: CCOc1ccc(-n2c(C(C)N(Cc3cccnc3)C(=O)Cc3ccc(F)c(C(F)(F)F)c3)nc3ncccc3c2=O)cc1 (stereo not drawn)
Data returned: not met

Data request: API: above_or_equal(metric=z-score, cutoff=0.01) for item O=c1cc(-c2cccc3c2Sc2ccccc2S3)oc(N2CCOCC2)c1
Data returned: not met

Data request: Has CC1CN(CC(=O)Nc2ccc3c(c2)Cc2cccc(-c4cc(=O)cc(N5CCOCC5)o4)c2S3)CC(C)O1 (stereo not drawn) a recorded z-score greater than or equal to 0.01?
Data returned: not met

Data request: Please indicate if the recorded z-score for CCCCCC(=O)Nc1c(C)cc(Br)cc1C meets or exceeds 0.01.
Data returned: met

Data request: # check: z-score of O=C(CCCCCCC(=O)Nc1ccccc1)NO is greater than or equal to 0.01
Data returned: met

Data request: Could you tell me if the measured z-score of COc1cc(OC)c(NC(=O)Nc2cc(C)on2)cc1Cl reaches 0.01 or more?
Data returned: not met

Data request: Does the molecule COc1cc2ncnc(Nc3ccc(F)c(Cl)c3)c2cc1OCCCN1CCOCC1 have recorded z-score that is 0.01 or more?
Data returned: met

---

# TEST DETAILS: supercomplex reporter luminescence per Hoechst cell count – Hoechst nuclei count (AID 1645838);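 note: control cybrid cells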
# CONDITIONS USED: Cells, luminescence/Hoechst cell count ratio, measured here: cell number, Hoechst nuclei count, library stock concentration (final well concentration not given) 400 uM
Out of some 2,000 compounds screened, about 100 (5%) were called active. This is one part of a sample in which actives are shown more often than they occur.
In this section we review reported cell count values for a set of compounds.
Kindly provide the number alone.

Completed entries (count: 8):
COMPOUND	cell count
O=C(CCCCCCC(=O)Nc1ccccc1)NO	4770
Cc1nc2ccc(-n3ncc(C(=O)c4cc5ccccc5[nH]4)c3N)cc2[nH]1	5920
O=C(Nc1ccccc1)Nc1ccc(-c2ccc(C(=O)C3CCCC3C(=O)O)cc2)cc1 (centres undefined)	5880
CN(c1ccccc1CNc1nc(Nc2ccc3c(c2)CC(=O)N3)ncc1C(F)(F)F)S(C)(=O)=O	4440
Cc1cc(N2CCOCC2)cc2[nH]c(-c3c(NCC(O)c4cccc(Cl)c4)cc[nH]c3=O)nc12 (centres undefined)	5710
O=C1C(=Cc2cn(-c3ccccc3)nc2-c2ccc(OCc3ccc(Cl)cc3)cc2)SC(=S)N1CCS(=O)(=O)O	4640
COc1ccc(CCOC2CCCCC2N2CCC(O)C2)cc1OC (centres undefined)	4950
Cc1cn(-c2cc(NC(=O)c3ccc(C)c(Nc4nccc(-c5cccnc5)n4)c3)cc(C(F)(F)F)c2)cn1	5720

Data request: // query cell count value for entry CC#CCC(C)C(O)C=CC1C(O)C[C@@H]2CC(=CCCCC(=O)O)C[C@@H]12 (some centres undefined)
Data returned: 5750

Data request: Requested read-out: cell count. Entry: CCOc1ccc(S(=O)(=O)N(CC(=O)N=Nc2c(O)[nH]c3ccccc23)c2ccccc2)cc1
Data returned: 5160

Data request: Return reported cell count; argument: OC(COc1cccc2ncccc12)CN1CCN(C2c3ccccc3C3C(c4ccccc42)C3(F)F)CC1 (centres undefined)
Data returned: 4580

Data request: Could you share which cell count value was measured for CCN(C)C(=O)Oc1cccc(C(C)N(C)C)c1 (centres undefined) ?
Data returned: 6310

Data request: Reported cell count, compound COc1ccc(Br)c(-c2nc3ccccc3c(=O)o2)c1 : ____
Data returned: 5070

Data request: Tell me the measured cell count of CC1COCCN1c1cc(C2(S(C)(=O)=O)CC2)nc(-c2cccc3[nH]ccc23)n1 (centres undefined) , please.
Data returned: 5550

All figures here come from PubChem BioAssay AID1645838.
